- test-system: Serine/threonine-protein kinase PAK 1 (Homo sapiens, UniProt Q13153)
- Sequence (Q13153 whole entry): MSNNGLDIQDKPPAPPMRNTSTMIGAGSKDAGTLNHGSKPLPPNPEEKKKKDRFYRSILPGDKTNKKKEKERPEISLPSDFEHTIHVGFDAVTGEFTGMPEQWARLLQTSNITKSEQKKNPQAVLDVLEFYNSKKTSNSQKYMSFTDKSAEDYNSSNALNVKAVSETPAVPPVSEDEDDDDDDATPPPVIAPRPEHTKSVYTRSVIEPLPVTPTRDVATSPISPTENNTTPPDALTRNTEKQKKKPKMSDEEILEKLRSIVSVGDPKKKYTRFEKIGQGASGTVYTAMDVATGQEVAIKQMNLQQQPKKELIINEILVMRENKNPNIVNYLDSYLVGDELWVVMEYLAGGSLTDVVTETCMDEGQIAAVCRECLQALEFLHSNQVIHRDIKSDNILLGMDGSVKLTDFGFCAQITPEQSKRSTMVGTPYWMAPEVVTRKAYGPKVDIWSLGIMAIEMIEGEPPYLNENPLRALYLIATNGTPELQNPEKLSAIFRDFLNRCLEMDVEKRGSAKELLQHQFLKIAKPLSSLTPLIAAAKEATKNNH
parameter: pIC50
Please report pIC50 as the negative decimal logarithm of the molar concentration, giving only the number.

Can you look up the measured pIC50 of O=C(CCCCCn1c(=O)c(-c2ccc(Cl)cc2Cl)cc2cnc(NC3CC3)nc21)NO for me? 7.87

###

- test-system: Histone deacetylase 8 (Homo sapiens)
- Sequence (Q9BY41 whole entry): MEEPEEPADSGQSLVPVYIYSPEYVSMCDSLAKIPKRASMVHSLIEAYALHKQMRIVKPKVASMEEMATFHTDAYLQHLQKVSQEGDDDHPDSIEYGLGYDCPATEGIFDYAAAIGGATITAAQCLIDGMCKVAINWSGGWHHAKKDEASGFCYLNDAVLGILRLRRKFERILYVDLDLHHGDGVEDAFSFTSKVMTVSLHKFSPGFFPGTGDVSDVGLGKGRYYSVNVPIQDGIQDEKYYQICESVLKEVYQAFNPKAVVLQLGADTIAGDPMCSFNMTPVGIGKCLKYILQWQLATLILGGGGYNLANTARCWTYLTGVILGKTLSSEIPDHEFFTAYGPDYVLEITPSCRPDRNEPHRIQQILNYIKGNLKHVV
pIC50: −log10 of the molar value.
parameter: pIC50

Requested read-out: pIC50. Entry: C[C@]12CC[C@H](OC(=O)CCCCCC(=O)NO)CC1=CCC1C2CC[C@]2(C)C(c3cccnc3)=CCC12 (stereo partly specified) < 5.00
